Molecular target: T1, AAV5
T1 construct: also called adeno-associated virus serotype 5
Test: SPR, AAV on CM5 chip;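 further: surface plasmon resonance with AAV amine-coupled to the chip as ligand, nanobodies injected as analyte over a concentration series, rate constants and affinity fitted from binding curves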
assay metric: koff (s⁻¹)
Give your result in s⁻¹ as a bare value.

Exercise: // lookup koff for A4-010 (VHH) VHH: VQLQESGGGLVQAGGSLRLSCAASGSIFSINSMGWYRQAPGKQRELVATVTRGGNTNYADSVKGRFTISRDNAKNTVYLQMNSLRPEDTAVYYCHVDEVRESSWTTSNLWGQGTQVTVSS
Solution: 0.00038

Exercise: Follow-up item: A4-005 (VHH) VHH: VQLQESGGGLVQAGGSLRLSCAASGRHFSINTMGWYRQAPGKQRELVAAVTRGGGTNYAGSVKGRFTISRDNAKNTVYLQMNSLRPEDTAVYYCHIDEVRQSSWTTSNIWGQGTQVTVSS
Solution: 0.00193

Exercise: Follow-up item: A4-030 (VHH) VHH: VQLQESGGGLVQPGGSLRLSCAASGSSFTINTMGWYRQAPGKQRELVAAVTRGGSTNYAGSVKGRFTISRDNAKNTIYLQMNSLRPEDTAVYYCHVDEIRQSSWTTSNLWGQGTQVTVSS
Solution: 0.00028

Exercise: Follow-up item: A4-028 (VHH) VHH: VQLQESGGGLVQPGGSLRLSCAASGSNFSINTMGWYRQAPGKQRELVATVTRGGDTNYADSVKGRFTISRDNAKNTVYLQMNSLRPEDTAVYYCHVDEIRESSWTTSNLWGQGTQVTVSS
Solution: 0.00162
